# System: SF-295 CNS
# Assay method text: NCI-60 one-dose screen, 48 h (100 = growth as untreated, 0 = no growth, -100 = all killed)
# Condition label: 10 µM unless noted
This is part of a sample that, as a whole, favours compounds with a hit. Of some 83,000 tested, about 20% had one in any assay.
Entries whose growth is below 60% take Condition met; entries at or above 60% take Condition not met.

# Compound, Label
measured = [
    ("CC1CN(C(C)C)C(=S)N(c2ccccc2)C1=O (configuration not stated)", "Condition not met"),
    ("O=C1C[C@H](N2C(=O)c3ccccc3S2(=O)=O)C2CO[C@@H]1O2", "Condition not met"),
    ("O=C1C(=O)N(CCCCn2cc(CO)nn2)c2ccccc21", "Condition not met"),
    ("CC(C)CC(CC1=CCC2CC1C2(C)C)C1=C(O)C(C)(C)C(=O)C(C)(C)C1=O (configuration not stated)", "Condition met"),
    ("C[C@@H]1CC[C@@H]2[C@@H]1[C@H](OC(=O)/C=C/c1ccccc1)[C@]1(C3CCCCC3)C[C@@H](OC(=O)CO)[C@@]2(C)O1", "Condition not met"),
    ("CC[n+]1ccc2c(c1)C(=O)c1nccc3c1c-2nc1ccccc13", "Condition met"),
    ("O=C1c2cc3c(cc2-c2c1c1cc(Cl)c(Cl)cc1c(=O)n2C[C@H](O)CO)OCO3", "Condition met"),
    ("O=[N+]([O-])c1cccc(-c2nc3sccn3c2-c2ccnc(NCCCNS(=O)(=O)c3ccc(F)cc3)n2)c1", "Condition met"),
    ("O=C1CC(c2nc3ccccc3[nH]2)CN1C1CCCCC1 (configuration not stated)", "Condition not met"),
    ("COc1cc(OC)c(/C=C/S(=O)(=O)Cc2cnc(OC)c(N)c2)c(OC)c1", "Condition met"),
]

Query: Is 60% strictly greater than the compound's reported growth? compound: "C[C@@H]1CCC2=C(CCC[C@]2(C)C(=O)O)[C@@]1(C)CCc1ccoc1"
Response: Condition not met

Query: Another compound to check: "Oc1cc(O)c2c(=S)cc(-c3ccc(Cl)cc3)oc2c1"
Response: Condition not met

Query: Note, next up: "COc1ccc(-c2nn(-c3ccccc3)cc2/C=C2\SC(=O)NC2=O)cc1"
Response: Condition not met

Query: Now give it for "O=c1cc(-c2ccccc2)[nH]c2ccccc12" too.
Response: Condition met

Query: Next record, please: "CCN(CC)CCC(=O)Nc1ccc(Cn2nnc3c2C(=O)c2nnn(Cc4ccc(NC(=O)CCN(CC)CC)cc4)c2C3=O)cc1"
Response: Condition met

----------
# Test system: HS 578T breast
# Assay method text: NCI-60 one-dose screen, 48 h (100 = growth as untreated, 0 = no growth, -100 = all killed)
# Condition label: 10 µM unless noted
# Procedure: Growth inhibition of the HS 578T human tumor cell line is measured as a screen for anti-cancer activity. Cells are grown in 96 well plates and exposed to the test compound for 48 hours. Compounds are tested at a single concentration, which is 10^-5 M for most compounds. The reported endpoint is percent growth (GI% or GIPRCNT), where numbers from 0 - 100% represent growth inhibition, and numbers from -100% - 0 represent cell death. For example, a value of 40 represents 60% growth inhibition. […]
Compounds without any hit were thinned out: in the full panel of roughly 83,000, 20% have a hit.
Response field label takes T when growth is strictly below 80% and F in all other cases.

# Molecule, Label
records = [
    ("COc1ccc2nc3cc(Cl)ccc3c(N3CCN(c4nccc(Nc5ccc(Cl)cc5)n4)CC3)c2c1", "F"),
    ("O=C1/C(=C\\c2cn(C(=O)c3ccc(Cl)cc3)c3ccccc23)c2ccccc2N1c1c(Cl)cccc1Cl", "F"),
    ("Cc1ccc2c(NCCCN(C)C)c3c(C)nn(C)c3nc2c1", "T"),
    ("Cc1ccc2c(c1)n([O-])c1cc(Cl)ccc1[n+]2=O", "F"),
    ("CCOC(=S)SCc1ccc(Cl)cc1", "F"),
]

Query: Input "Oc1ccc2c(=S)cc(-c3ccc(Br)cc3)oc2c1O" ; condition: growth strictly below 80%. Does it hold?
Response: F
